# PROCEDURE SUMMARY: Metabolic stability in rat liver microsomes (in vitro t1/2)
# Assay type: in vitro ADME
# EXPERIMENTAL PARAMETERS: rat liver microsomes 0.5 mg/mL, 2 μM compound, % remaining at 60 min
# key: entry, value: Rat microsome % 60 min
QUANTITY KIND: Rat microsome % 60 min (%)

Cn1ncc2cccc(-n3nc(COC(C)(C)C(=O)O)cc3-c3cccc(OCC4CCC4)c3)c21 :: 81
CC(C)(OCc1cc(-c2cccc(OC3CCC3)c2)n(-c2ccccc2Cl)n1)C(=O)O :: 87
CC(C)(OCc1cc(-c2cccc(OC3CC3)c2)n(Cc2ccccc2N2CCCC2)n1)C(=O)O :: 2
CCOc1ccccc1Cn1nc(COC(C)(C)C(=O)O)cc1-c1cc(OC)cc(OC)c1 :: 57

----------
# PROCEDURE SUMMARY: Pharmacokinetic assay in rat (IV 3 mg/kg, PO 10 mg/kg)
# Format: in vivo
# EXPERIMENTAL PARAMETERS: male, Sprague-Dawley, plasma, read-out: Rat F (%)
Given measured bioavailability, output Fulfilled if it is greater than or equal to 60% and Not fulfilled if not.

CCn1ncc2ccc(-c3cc(COC(C)(C)C(=O)O)nn3-c3ccccc3N3CCCC3)cc21 :: Fulfilled
Cn1ncc2cccc(-n3nc(COC(C)(C)C(=O)O)cc3-c3cccc(OC4CC4)c3)c21 :: Fulfilled
CCn1ncc2ccc(-c3cc(COC(C)(C)C(=O)O)nn3-c3ccccc3N3CCC3)cc21 :: Fulfilled
CCn1ncc2ccc(-c3cc(CO[C@@](C)(CC)C(=O)O)nn3Cc3ccccc3Cl)cc21 :: Fulfilled
COc1cccc(-c2cc(COC(C)(C)C(=O)O)nn2Cc2ccccc2Cl)c1 :: Fulfilled
CC(C)COc1cccc(-c2cc(COC(C)(C)C(=O)O)nn2-c2cccc3cnn(C)c23)c1 :: Not fulfilled
CCCn1ncc2ccc(-c3cc(COC(C)(C)C(=O)O)nn3-c3ccccc3N3CCC3)cc21 :: Not fulfilled
CCn1ncc2ccc(-c3cc(CO[C@](C)(CC)C(=O)O)nn3-c3ccccc3N3CCCC3)cc21 :: Not fulfilled
CCOc1ccccc1Cn1nc(COC(C)(C)C(=O)O)cc1-c1cc(OC)cc(OC)c1 :: Not fulfilled
CC(C)(OCc1cc(-c2cccc(OC3CC3)c2)n(-c2ccccc2N2CCC2)n1)C(=O)O :: Not fulfilled

----------
# key: entry, value: bioavailability
# PROCEDURE SUMMARY: Pharmacokinetic assay in rat (IV 3 mg/kg, PO 10 mg/kg)
# Format: in vivo
# EXPERIMENTAL PARAMETERS: male, Sprague-Dawley, plasma, read-out: Rat F (%)
QUANTITY KIND: bioavailability

CCCn1ncc2ccc(-c3cc(CO[C@](C)(CC)C(=O)O)nn3-c3ccccc3N3CCC3)cc21 [Example 267] :: 54%
COc1cc(OC)cc(-c2cc(COC(C)(C)C(=O)O)nn2Cc2ccccc2Cl)c1 [Example 224] :: 53%
CCOc1cc(OCC)cc(-c2cc(COC(C)(C)C(=O)O)nn2-c2ccccc2Cl)c1 [Example 180] :: 49%
CC(C)(OCc1cc(-c2cccc(OC3CCC3)c2)n(-c2ccccc2Cl)n1)C(=O)O [Example 175] :: 48%

----------
# TGT: MCT1 (Homo sapiens (Human))
# Sequence (P53985 whole entry): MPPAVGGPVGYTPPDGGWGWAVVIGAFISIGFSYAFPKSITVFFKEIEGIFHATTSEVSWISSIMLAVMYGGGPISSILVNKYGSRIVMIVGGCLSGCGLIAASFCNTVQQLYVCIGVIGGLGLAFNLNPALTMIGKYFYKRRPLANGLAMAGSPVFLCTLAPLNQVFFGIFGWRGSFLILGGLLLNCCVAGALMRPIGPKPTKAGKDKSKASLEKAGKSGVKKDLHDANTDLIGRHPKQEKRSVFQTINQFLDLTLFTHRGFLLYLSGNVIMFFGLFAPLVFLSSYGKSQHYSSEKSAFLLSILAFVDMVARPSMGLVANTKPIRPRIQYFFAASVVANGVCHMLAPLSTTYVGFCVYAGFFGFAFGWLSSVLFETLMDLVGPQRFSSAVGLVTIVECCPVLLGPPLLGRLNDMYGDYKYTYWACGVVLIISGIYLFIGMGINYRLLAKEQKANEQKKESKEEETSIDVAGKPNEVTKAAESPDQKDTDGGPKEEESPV
# Sequence (P35613 140-385 partner): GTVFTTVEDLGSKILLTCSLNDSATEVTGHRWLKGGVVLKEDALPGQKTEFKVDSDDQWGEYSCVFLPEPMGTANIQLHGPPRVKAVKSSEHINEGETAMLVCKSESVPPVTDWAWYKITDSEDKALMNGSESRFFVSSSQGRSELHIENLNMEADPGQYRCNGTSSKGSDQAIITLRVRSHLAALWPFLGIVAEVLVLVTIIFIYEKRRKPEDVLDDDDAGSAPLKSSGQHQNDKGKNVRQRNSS
# PROCEDURE SUMMARY: Assay 4: MCT1-mediated lactate transport in BT20 breast cancer cells
# Type: cell-based
# EXPERIMENTAL PARAMETERS: lactate transport (Table 26)
QUANTITY KIND: IC50

COc1cccc(-c2cc(COC(C)(C)C(=O)O)nn2Cc2ccccc2Cl)c1 [Example 14] :: > 100000 nM

----------
# PROCEDURE SUMMARY: Metabolic stability in human liver microsomes (in vitro t1/2)
# Format: in vitro ADME
# EXPERIMENTAL PARAMETERS: human liver microsomes 0.5 mg/mL, 2 μM compound, % remaining at 60 min
# key: entry, value: Human microsome % 60 min
QUANTITY KIND: Human microsome % 60 min (%)

CC(C)(OCc1cc(-c2cccc(OC3CC3)c2)n(-c2ccccc2N2CCC2)n1)C(=O)O [Example 232] :: 65
CCn1ncc2ccc(-c3cc(CO[C@@](C)(CC)C(=O)O)nn3Cc3ccccc3Cl)cc21 [Example 257] :: 96
CC(C)Oc1cccc(-c2cc(COC(C)(C)C(=O)O)nn2Cc2ccccc2Cl)c1 [Example 35] :: 67
CCn1ncc2ccc(-c3cc(COC(C)(C)C(=O)O)nn3Cc3ccccc3Cl)cc21 [Example 150] :: 90
CCCn1ncc2ccc(-c3cc(COC(C)(C)C(=O)O)nn3-c3ccccc3N3CCC3)cc21 [Example 246] :: 65
CC(C)COc1cccc(-c2cc(COC(C)(C)C(=O)O)nn2Cc2ccccc2Cl)c1 [Example 27] :: 43
CCn1ncc2ccc(-c3cc(COC(C)(C)C(=O)O)nn3-c3ccccc3N3CCC3)cc21 [Example 228] :: 71
CC(C)Oc1ncc(-c2cc(COC(C)(C)C(=O)O)nn2Cc2ccccc2Cl)s1 [Example 133] :: 97
COc1cccc(-c2cc(COC(C)(C)C(=O)O)nn2-c2ccccc2Cl)c1 [Example 57] :: 80
CCOc1ccccc1Cn1nc(COC(C)(C)C(=O)O)cc1-c1cc(Cl)cc(OC)c1 [Example 196] :: 62
COc1cccc(-c2cc(COC(C)(C)C(=O)O)nn2Cc2ccccc2N(C)C)c1 [Example 38] :: 56
CC(C)(OCc1cc(-c2cccc(OC3CCC3)c2)n(-c2ccccc2Cl)n1)C(=O)O [Example 175] :: 83
COc1cc(OC)cc(-c2cc(COC(C)(C)C(=O)O)nn2-c2ccccc2N2CCC2)c1 [Example 251] :: 77
CC(C)COc1ncc(-c2cc(COC(C)(C)C(=O)O)nn2Cc2ccccc2Cl)s1 [Example 132] :: 70
COc1cccc(-c2cc(COC(C)(C)C(=O)O)nn2Cc2ccccc2Cl)c1 [Example 14] :: 82
CC(C)(OCc1cc(-c2cccc(OC3CC3)c2)n(-c2ccccc2Cl)n1)C(=O)O [Example 110] :: 99
CC(C)(C)COc1cccc(-c2cc(COC(C)(C)C(=O)O)nn2-c2ccccc2Cl)c1 [Example 177] :: 75

----------
# PROCEDURE SUMMARY: Metabolic stability in mouse liver microsomes (in vitro t1/2)
# Assay type: in vitro ADME
# EXPERIMENTAL PARAMETERS: mouse liver microsomes 0.5 mg/mL, 2 μM compound, % remaining at 60 min
I'd appreciate it if you marked entries 1 (yes) when Mouse microsome % 60 min is lower than 80% and 0 (no) when it is not.

CC(C)(OCc1cc(-c2cccc(OC3CC3)c2)n(-c2ccccc2N2CCC2)n1)C(=O)O :: 1 (yes)
CC(C)Oc1cccc(-c2cc(COC(C)(C)C(=O)O)nn2Cc2ccccc2Cl)c1 :: 1 (yes)
CC(C)(OCc1cc(-c2cccc(OC3CC3)c2)n(Cc2ccccc2Cl)n1)C(=O)O :: 0 (no)
CCC(C)(OCc1cc(-c2cccc(OC)c2)n(Cc2ccccc2Cl)n1)C(=O)O (stereo not shown) :: 0 (no)
CC(C)Cc1ncc(-c2cc(COC(C)(C)C(=O)O)nn2Cc2ccccc2Cl)o1 :: 1 (yes)
Cn1ncc2cccc(-n3nc(COC(C)(C)C(=O)O)cc3-c3cccc(OCC(C)(C)C)c3)c21 :: 0 (no)
CCn1ncc2ccc(-c3cc(COC(C)(C)C(=O)O)nn3-c3ccccc3N3CCC3)cc21 :: 0 (no)
COc1cccc(-c2c(C)c(COC(C)(C)C(=O)O)nn2Cc2ccccc2Cl)c1 :: 0 (no)
COc1cc(OC)cc(-c2cc(COC(C)(C)C(=O)O)nn2-c2ccccc2N2CCC2)c1 :: 1 (yes)
CC(C)Oc1ncc(-c2cc(COC(C)(C)C(=O)O)nn2Cc2ccccc2Cl)s1 :: 0 (no)
CC(C)(C)COc1cccc(-c2cc(COC(C)(C)C(=O)O)nn2-c2ccccc2N2CCC2)c1 :: 1 (yes)
CC(C)COc1cccc(-c2cc(COC(C)(C)C(=O)O)nn2Cc2ccccc2Cl)c1 :: 1 (yes)
CC(C)(OCc1cc(-c2cccc(OC3CC3)c2)n(Cc2ccccc2N2CCCC2)n1)C(=O)O :: 1 (yes)
Cc1ccccc1-n1nc(COC(C)(C)C(=O)O)cc1-c1cccc(OC2CCC2)c1 :: 0 (no)

----------
# PROCEDURE SUMMARY: Metabolic stability in mouse liver microsomes (in vitro t1/2)
# Type: in vitro ADME
# EXPERIMENTAL PARAMETERS: mouse liver microsomes 0.5 mg/mL, 2 μM compound, % remaining at 60 min
# key: entry, value: Mouse microsome % 60 min
QUANTITY KIND: Mouse microsome % 60 min (%)

COc1cc(-c2cc(COC(C)(C)C(=O)O)nn2Cc2ccccc2Cl)cs1 [Example 66] :: 83
Cn1ncc2cccc(-n3nc(COC(C)(C)C(=O)O)cc3-c3cccc(OC4CC4)c3)c21 [Example 191] :: 97
CC(C)(OCc1cc(-c2cccc(OCC3CCC3)c2)n(-c2ccccc2Cl)n1)C(=O)O [Example 178] :: 70
CC(C)(C)COc1cccc(-c2cc(COC(C)(C)C(=O)O)nn2-c2ccccc2Cl)c1 [Example 177] :: 87
COc1ccc(-c2cc(COC(C)(C)C(=O)O)nn2Cc2ccccc2Cl)s1 [Example 64] :: 84
COc1cccc(-c2cc(COC(C)(C)C(=O)O)nn2Cc2ccccc2N(C)C)c1 [Example 38] :: 61
CCOc1ccccc1Cn1nc(COC(C)(C)C(=O)O)cc1-c1cccc(OC2CC2)c1 [Example 201] :: 58
COc1cccc(-c2cc(COC(C)(C)C(=O)O)nn2Cc2ccccc2Cl)c1 [Example 14] :: 95
COc1cc(OC)cc(-c2cc(COC(C)(C)C(=O)O)nn2Cc2ccccc2Cl)c1 [Example 224] :: 98
CCOc1cccc(-n2nc(COC(C)(C)C(=O)O)cc2-c2cc(OC)cc(OC)c2)c1 [Example 243] :: 97
COc1cccc(-c2cc(COC(C)(C)C(=O)O)nn2-c2ccccc2Cl)c1 [Example 57] :: 100
CC(C)(OCc1cc(-c2cccc(OC3CC3)c2)n(-c2ccccc2N2CCCC2)n1)C(=O)O [Example 221] :: 34
COc1cccc(-c2cc(COC(C)(C)C(=O)O)nn2Cc2ccccc2OC)c1 [Example 36] :: 99
COc1csc(-c2cc(COC(C)(C)C(=O)O)nn2Cc2ccccc2Cl)c1 [Example 65] :: 92
CCn1ncc2ccc(-c3cc(COC(C)(C)C(=O)O)nn3-c3ccccc3N3CCCC3)cc21 [Example 229] :: 81
CC[C@@](C)(OCc1cc(-c2cc(OC)cc(OC)c2)n(-c2ccccc2Cl)n1)C(=O)O [Example 222] :: 94
COc1cccc(-c2cc(COC(C)(C)C(=O)O)nn2Cc2ccccc2OC(C)C)c1 [Example 140] :: 62
